Cited source: patent US8841413B2

Reported % degradation in 24 h when incubated with DPP-IV enzyme values for a set of compounds
# target_entity: DPP IV (Homo sapiens)
# Sequence (P27487 whole entry, species assumed): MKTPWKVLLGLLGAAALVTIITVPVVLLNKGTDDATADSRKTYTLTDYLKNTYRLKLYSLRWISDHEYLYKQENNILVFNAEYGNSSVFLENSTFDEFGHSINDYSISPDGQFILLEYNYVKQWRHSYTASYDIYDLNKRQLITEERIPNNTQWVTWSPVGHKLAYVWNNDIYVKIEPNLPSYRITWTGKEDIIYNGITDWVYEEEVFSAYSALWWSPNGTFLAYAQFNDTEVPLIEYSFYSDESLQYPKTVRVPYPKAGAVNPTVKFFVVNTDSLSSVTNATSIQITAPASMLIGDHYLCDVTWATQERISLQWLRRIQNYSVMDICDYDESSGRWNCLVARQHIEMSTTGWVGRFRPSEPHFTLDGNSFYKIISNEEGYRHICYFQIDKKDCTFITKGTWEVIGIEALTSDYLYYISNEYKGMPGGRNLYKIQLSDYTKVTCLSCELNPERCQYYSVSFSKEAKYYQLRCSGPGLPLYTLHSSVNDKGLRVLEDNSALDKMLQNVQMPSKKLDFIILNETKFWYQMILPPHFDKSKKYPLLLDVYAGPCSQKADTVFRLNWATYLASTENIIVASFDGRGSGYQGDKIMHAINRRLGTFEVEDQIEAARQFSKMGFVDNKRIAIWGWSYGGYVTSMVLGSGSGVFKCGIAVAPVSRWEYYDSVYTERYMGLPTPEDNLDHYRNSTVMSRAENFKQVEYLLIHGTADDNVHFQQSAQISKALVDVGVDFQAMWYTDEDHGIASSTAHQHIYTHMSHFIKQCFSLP
# assay_method_text: Stability against DPP IV enzyme
# Assay type: in vitro ADME
# experimental_setup: 2 μM, 37° C., 24 h
The figure you give is taken to be in %; do not add the unit.

The examples below pair each entry with its known result.
>  <compound>
CCc1cc(OC)ccc1-c1ccc(CC(NC(=O)[C@H](CC(=O)O)NC(=O)[C@H](CO)NC(=O)[C@@H](NC(=O)C(C)(Cc2ccccc2F)NC(=O)[C@@H](NC(=O)CNC(=O)[C@H](CCC(N)=O)NC(=O)[C@H](C)NC(=O)[C@@H](N)Cc2c[nH]cn2)[C@@H](C)O)[C@@H](C)O)C(=O)NC(Cc2ccc(-c3ccccc3C)nc2)C(N)=O)cc1 (single isomer, unassigned)

>  <reported_value>
70

$$$$
>  <compound>
CCc1cc(OC)ccc1-c1ccc(CC(NC(=O)[C@H](CC(=O)O)NC(=O)[C@H](CO)NC(=O)[C@@H](NC(=O)[C@H](Cc2ccccc2)NC(=O)[C@@H](NC(=O)CNC(=O)[C@H](CCC(N)=O)NC(=O)[C@H](CO)NC(=O)[C@@H](N)Cc2c[nH]cn2)[C@@H](C)O)[C@@H](C)O)C(=O)NC(Cc2ccc(-c3ccccc3C(F)(F)F)cc2)C(N)=O)cc1 (single isomer, unassigned)

>  <reported_value>
76

$$$$
>  <compound>
CCc1cc(OC)ccc1-c1ccc(CC(NC(=O)[C@H](CC(=O)O)NC(=O)[C@H](CO)NC(=O)[C@@H](NC(=O)C(C)(Cc2ccccc2F)NC(=O)[C@@H](NC(=O)CNC(=O)[C@H](CCC(N)=O)NC(=O)C(C)(C)NC(=O)[C@@H](N)Cc2c[nH]cn2)[C@@H](C)O)[C@@H](C)O)C(=O)NC(Cc2ccc(-c3ccccc3C)cc2)C(N)=O)cc1 (single isomer, unassigned)

>  <reported_value>
00

$$$$

Report measured % degradation in 24 h when incubated with DPP-IV enzyme; entry is CCc1cc(OC)ccc1-c1ccc(CC(NC(=O)[C@H](CC(=O)O)NC(=O)[C@H](CO)NC(=O)[C@@H](NC(=O)[C@H](Cc2ccccc2)NC(=O)[C@@H](NC(=O)CNC(=O)[C@H](CCC(N)=O)NC(=O)[C@H](C)NC(=O)[C@@H](N)Cc2c[nH]cn2)[C@@H](C)O)[C@@H](C)O)C(=O)NC(Cc2ccc(-c3ccccc3C)nc2)C(N)=O)cc1 (single isomer, unassigned)
70
